Data provenance: ChEMBL document CHEMBL1150365

protocolDetails: Aqueous solubility of the compound
Assay type: physicochemical
measurementSetup: water

{"smilesStructure": "O=c1cc(Nc2ccc3c(c2)CCC3)[nH]c(=O)n1CC1CC1", "valueUnits": "µg/mL", "solubility": 3.3}

---

Test system: Enterococcus faecalis
protocolDetails: Antibacterial activity against Enterococcus faecalis ICB 27159 in presence of bovine serum by broth microdilution method
Type: functional
Parameter: MIC. Scope: all listed entries.

{"smilesStructure": "COC(=O)c1ccc(Cn2c(=O)cc(Nc3ccc4c(c3)CCC4)[nH]c2=O)o1", "valueUnits": "mg/L", "qualifierSymbol": "=", "MIC": 32}
{"smilesStructure": "O=C(Cn1c(=O)cc(Nc2ccc3c(c2)CCC3)[nH]c1=O)c1ccc(Br)cc1", "valueUnits": "mg/L", "qualifierSymbol": ">", "MIC": 256}
{"smilesStructure": "O=c1cc(Nc2ccc3c(c2)CCC3)[nH]c(=O)n1CC1CC1", "valueUnits": "mg/L", "qualifierSymbol": "=", "MIC": 16}
{"smilesStructure": "CN(C)C(=O)c1cc(Cn2c(=O)cc(Nc3ccc4c(c3)CCC4)[nH]c2=O)on1", "valueUnits": "mg/L", "qualifierSymbol": "=", "MIC": 32}
{"smilesStructure": "CCc1cc(Nc2cc(=O)n(CCCO)c(=O)[nH]2)ccc1C", "valueUnits": "mg/L", "qualifierSymbol": "=", "MIC": 16}
{"smilesStructure": "CCOC(=O)Cn1c(=O)cc(Nc2ccc3c(c2)CCC3)[nH]c1=O", "valueUnits": "mg/L", "qualifierSymbol": "=", "MIC": 64}
